Cited source: ChEMBL document CHEMBL3612062

# Test system: SMMC-7721
# protocol.description: Increase of cell survival in human SMMC7721 at 50 uM after 48 hrs by MTT assay in presence of deferoxamine
# Assay type: functional
property.label: Activity (%)
Express the result in % but write the number alone.

{"compound": "Oc1ccc(N[C@H]2CC[C@@]3(CC2)OC[C@]2(OO3)C3CC4CC(C3)CC2C4)c2cccnc12 (mixture of isomers)", "Activity / %": 15}

Quote Activity reported for Oc1ccc(N[C@H]2CC[C@]3(CC2)OO[C@]2(O3)C3CC4CC(C3)CC2C4)c2cccnc12 (mixture of isomers) please. 15

Quote Activity reported for Oc1ccc(NC2CCC3(CC2)OOC2(OO3)C3CC4CC(C3)CC2C4)c2cccnc12 (mixture of isomers) please. 15

Quote Activity reported for O=C(NC1CCC2(CC1)OOC1(OO2)C2CC3CC(C2)CC1C3)c1ccc(O)c(O)c1 (stereo unspecified) please. 10

Quote Activity reported for O=C(N[C@H]1CC[C@]2(CC1)OO[C@]1(O2)C2CC3CC(C2)CC1C3)c1ccc(O)c(O)c1 (mixture of isomers) please. 10

Quote Activity reported for O=C(N[C@H]1CC[C@@]2(CC1)OC[C@]1(OO2)C2CC3CC(C2)CC1C3)c1ccc(O)c(O)c1 (mixture of isomers) please. 10

###

# Test system: SMMC-7721
# protocol.description: Cytotoxicity against human SMMC7721 cells after 48 hrs by MTT assay
# Format: functional, cell-based
# study.conditions: SMMC-7721, 48 h
property.label: IC50

Consider the reported IC50 for these compounds:
{"compound": "Nc1ccc(O)c2ncccc12", "IC50": "> 50 µM"}
{"compound": "O=C1CCC2(CC1)OCC1(OO2)C2CC3CC(C2)CC1C3 (centres undefined)", "IC50": "> 100 µM"}
{"compound": "C[C@H]1[C@@H](O)O[C@@H]2O[C@@]3(C)CC[C@H]4[C@H](C)CC[C@@H]1[C@@]24OO3 [ARTENIMOL]", "IC50": "13.8 µM"}
{"compound": "O=C(O)C1CCC2(CC1)OOC1(OO2)C2CC3CC(C2)CC1C3 (centres undefined)", "IC50": "> 100 µM"}
{"compound": "O=C(NC1CCC2(CC1)OCC1(CO2)C2CC3CC(C2)CC1C3)c1ccc(O)c(O)c1 (mixture of isomers)", "IC50": "> 50 µM"}

Quote IC50 reported for Oc1ccc(N[C@H]2CC[C@]3(CC2)OC[C@]2(O3)C3CC4CC(C3)CC2C4)c2cccnc12 (mixture of isomers) please. 12.6 µM

Quote IC50 reported for O=C(NO)[C@H]1CC[C@@]2(CC1)OC[C@]1(OO2)C2CC3CC(C2)CC1C3 (mixture of isomers) please. > 50 µM

Quote IC50 reported for O=C(O)[C@H]1CC[C@@]2(CC1)OC[C@]1(OO2)C2CC3CC(C2)CC1C3 please. > 100 µM

Quote IC50 reported for O=C1CCC2(CC1)OOC1(OO2)C2CC3CC(C2)CC1C3 please. > 100 µM

###

# Test system: A549
# protocol.description: Cytotoxicity against human A549 cells after 48 hrs by MTT assay
# Format: functional, cell-based
# study.conditions: A549, 48 h
IC50: recorded values

{"molecule": "O=C(NO)[C@H]1CC[C@@]2(CC1)OC[C@]1(OO2)C2CC3CC(C2)CC1C3 (mixture of isomers)", "measured": "> 50 µM"}
{"molecule": "C[C@H]1[C@@H](O)O[C@@H]2O[C@@]3(C)CC[C@H]4[C@H](C)CC[C@@H]1[C@@]24OO3 [ARTENIMOL]", "measured": "30.1 µM"}
{"molecule": "O=C(O)c1ccc(O)c(O)c1 [PROTOCATECHUIC ACID]", "measured": "> 50 µM"}
{"molecule": "O=C(N[C@H]1CC[C@]2(CC1)OC[C@]1(O2)C2CC3CC(C2)CC1C3)c1ccc(O)c(O)c1 (mixture of isomers)", "measured": "> 50 µM"}
{"molecule": "O=C(NO)[C@H]1CC[C@]2(CC1)OO[C@]1(O2)C2CC3CC(C2)CC1C3 (mixture of isomers)", "measured": "> 50 µM"}

Quote IC50 reported for O=C(O)[C@H]1CC[C@@]2(CC1)OC[C@]1(OO2)C2CC3CC(C2)CC1C3 please. > 100 µM

Quote IC50 reported for O=C(NC1CCC2(CC1)OOC1(OO2)C2CC3CC(C2)CC1C3)c1ccc(O)c(O)c1 (centres undefined) please. > 50 µM

Quote IC50 reported for O=C(O)C1CCC2(CC1)OOC1(OO2)C2CC3CC(C2)CC1C3 (centres undefined) please. > 100 µM

Quote IC50 reported for O=C(N[C@H]1CC[C@]2(CC1)OO[C@]1(O2)C2CC3CC(C2)CC1C3)c1ccc(O)c(O)c1 (mixture of isomers) please. > 50 µM
